Biological target: ETB receptors (Rattus norvegicus, UniProt P21451)
Sequence (P21451 27-442): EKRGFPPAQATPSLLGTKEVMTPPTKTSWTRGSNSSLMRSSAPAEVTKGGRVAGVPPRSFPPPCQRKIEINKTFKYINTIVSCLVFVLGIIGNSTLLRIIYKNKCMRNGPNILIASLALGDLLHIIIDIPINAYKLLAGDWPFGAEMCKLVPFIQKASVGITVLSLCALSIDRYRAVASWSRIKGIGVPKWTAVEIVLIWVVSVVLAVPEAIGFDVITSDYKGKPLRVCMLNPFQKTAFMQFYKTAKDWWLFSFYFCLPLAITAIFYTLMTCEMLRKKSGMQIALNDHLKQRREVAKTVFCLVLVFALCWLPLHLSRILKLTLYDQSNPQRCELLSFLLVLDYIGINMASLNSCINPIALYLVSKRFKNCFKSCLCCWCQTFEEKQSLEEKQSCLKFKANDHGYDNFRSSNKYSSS
Experiment: Inhibition of sarafotoxin S6c-induced contractions on isolated rat tracheal rings
Details: rat tracheal rings, contraction induced by sarafotoxin S6c, 10 min incubation
ASSAY ENDPOINT: pA2 value ETB

// worked examples, pA2 value ETB included
CCS(=O)(=O)NCCOc1nc(N2CCOCC2)nc(NS(=O)(=O)c2ccc(C(C)C)cn2)c1Oc1ccccc1OC: 6.36
CCCS(=O)(=O)NCCOc1nc(N2CCOCC2)nc(NS(=O)(=O)c2ccc(C)cn2)c1Oc1ccccc1OC: 5.58
CCS(=O)(=O)NCCOc1nc(C(F)(F)F)nc(NS(=O)(=O)c2ccc(C(C)C)cn2)c1Oc1ccccc1OC: 6.3

Now, please, on to the next molecule.
Identify measured pA2 value ETB associated with COc1ccccc1Oc1c(NS(=O)(=O)c2ccc(C(C)(C)C)cc2)nc(-c2ncccn2)nc1OCCNS(=O)(=O)c1cccs1
7.15
